# test system: T1, human CD71 extracellular domain (human, UniProt P02786 89-760)
# T1 construct: also called hCD71; human CD71-ECD
# T1 sequence (P02786 89-760): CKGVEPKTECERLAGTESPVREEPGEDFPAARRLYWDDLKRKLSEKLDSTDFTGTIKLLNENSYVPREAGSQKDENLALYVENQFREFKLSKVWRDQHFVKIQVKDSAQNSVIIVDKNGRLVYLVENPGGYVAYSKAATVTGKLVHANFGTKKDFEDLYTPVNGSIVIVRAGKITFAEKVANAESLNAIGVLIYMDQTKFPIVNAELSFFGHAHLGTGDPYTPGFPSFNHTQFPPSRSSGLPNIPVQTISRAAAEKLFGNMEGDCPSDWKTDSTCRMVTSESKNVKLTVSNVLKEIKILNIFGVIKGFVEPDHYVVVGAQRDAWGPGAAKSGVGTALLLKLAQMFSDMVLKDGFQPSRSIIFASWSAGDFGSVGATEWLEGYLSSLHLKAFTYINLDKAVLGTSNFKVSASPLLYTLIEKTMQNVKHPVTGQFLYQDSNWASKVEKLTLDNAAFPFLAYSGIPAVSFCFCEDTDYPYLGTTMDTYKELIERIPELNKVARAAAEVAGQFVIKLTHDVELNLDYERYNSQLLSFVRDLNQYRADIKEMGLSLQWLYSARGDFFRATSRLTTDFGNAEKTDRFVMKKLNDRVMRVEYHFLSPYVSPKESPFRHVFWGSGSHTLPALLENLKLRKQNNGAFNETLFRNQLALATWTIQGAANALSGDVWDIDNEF
# procedure details: primary ELISA of colonies, luminescence; note: test concentration or dose not given here

binder: CD71-binding FN3 domain of SEQ ID NO: 113 (designed binder, Screen 1 hit, tested from colonies in the primary ELISA; not shown: C-terminal poly-histidine tag added to each FN3 domain) MLPAPKNLVVSRVTEDSARLSWTAPDAAFDSFFIGYLEPQPPGEAIYLLVPGSERSYDLTGLKPGTEYNVTIQGVKGGFPSDPLSAIFTT
hCD71, RLU (RLU): 4.6e+06
//
binder: CD71-binding FN3 domain of SEQ ID NO: 103 (designed binder, Screen 1 hit, tested from colonies in the primary ELISA; not shown: C-terminal poly-histidine tag added to each FN3 domain) MLPAPKNLVVSRVTEDSARLSWTAPDAAFDSFYIAYAEPRPDGEAIILGVPGSERSYDLTGLKPGTEYSVLIHGVKGGLLSSPLSAYSTT
hCD71, RLU (RLU): 6.37e+06
//
binder: CD71-binding FN3 domain of SEQ ID NO: 100 (designed binder, Screen 1 hit, tested from colonies in the primary ELISA; not shown: C-terminal poly-histidine tag added to each FN3 domain) MLPAPKNLVVSRVTEDSARLSWTAPDAAFDSFYIAYAEPRPDGEAILLLVPGSERSYDLTGLKPGTEYSVLIHGVKGGLLSSPLVASFTT
hCD71, RLU (RLU): 6.95e+06
//
binder: CD71-binding FN3 domain of SEQ ID NO: 109 (designed binder, Screen 1 hit, tested from colonies in the primary ELISA; not shown: C-terminal poly-histidine tag added to each FN3 domain) MLPAPKNLVVSRVTEDSARLSWTAPDAAFDSFFIGYLEPQPPGEAIILHVPGSERSYDLTGLKPGTEYNVTIQGVKGGFPSLPLNANFTT
hCD71, RLU (RLU): 3.94e+06
//
binder: CD71-binding FN3 domain of SEQ ID NO: 115 (designed binder, Screen 1 hit, tested from colonies in the primary ELISA; not shown: C-terminal poly-histidine tag added to each FN3 domain) MLPAPKNLVVSRVTEDSARLSWTAPDAAFDSFFIGYLEPQPPGEAIDLYVPGSERSYDLTGLKPGIEYNVTIQGVKGGFPSLPLQAHFTT
hCD71, RLU (RLU): 5.19e+06
//
binder: CD71-binding FN3 domain of SEQ ID NO: 116 (designed binder, Screen 1 hit, tested from colonies in the primary ELISA; not shown: C-terminal poly-histidine tag added to each FN3 domain) MLPAPKNLVVSRVTEDSARLSWTAPDAAFDSFYIAYAEPRPDGEAILLLVPGSERSYDLTGLKPGTEYSVLIHGVKGGLLSSPLIAGFTT
hCD71, RLU (RLU): 4.05e+06
